The measured values listed here are drawn from paper PMC8215932.

- System: human neprilysin (NEP)
- Assay Explanation: Cleavage by NEP
- Format: in vitro ADME
- Condition Notes: isolated human neprilysin (NEP)
Where no end group is shown, it is not given here.
Endpoint Label: metabolised

Sequence Text	metabolised
DYVTVKGFSPLRKA [β-scoliidine]	< 0.01%

API: the following record is the query input.
Assay human neprilysin (NEP), sample DYVTVKGFSPLR [α-scoliidine] , metabolised read: < 0.01%
